Give measured MBIC for each item. Keep answers brief.
# System: biofilm-producing Staphylococcus epidermidis strains
# EXPERIMENTAL_DETAILS: Inhibition of biofilm formation (MBIC, resazurin)
# Assay type: cell-based
# PARTICULARS: clinical strain 33 (Table S4)
Number only, in µg/mL; omit the unit.

What value of MBIC has been reported for the following compound? CC(=O)NC[C@H]1CN(c2ccc(N3CCOCC3)c(F)c2)C(=O)O1 [linezolid, reference compound]
50

Given O=S(=O)(NC1CCN(CCC(Oc2ccc(C(F)(F)F)cc2)c2cccs2)CC1)c1cccc(Cl)c1 (stereo not shown) [Compound 14] , state its recorded MBIC.
125

Which MBIC value is on record for O=S(=O)(NC1CCN(CCC(Oc2ccc(C(F)(F)F)cc2)c2ccccc2)CC1)c1cccc(Cl)c1 (stereo not shown) [Compound 12] ?
125

For the compound shown here, O=C(Nc1cccc(Cl)c1)NC1CCN(CCC(Oc2ccc(C(F)(F)F)cc2)c2cccs2)CC1 (stereo not shown) [Compound 25] , give the reported MBIC.
31.25
